Experiment: Pharmacokinetics (tmax) after intravenous and nebulizer inhalation administration, rat
Type: in vivo
Conditions: blood, inhaled or intranasal, 15 mg/kg, inhalation, 15 mg/kg, 45 minutes exposure, multiple dose (14 day), read-out: Average tmax (converted)
Procedure: Two animal species, rat and dog, are administered the formulation in a 14 day multiple dose inhalation study with a nebulizer. Results from the pharmacokinetic portion of the study indicate comparability between tmax values found for intravenous and inhaled delivery.

{"smiles_structure": "CCCCCc1cc(O)c2c(c1)OC(C)(C)[C@@H]1CCC(C)=C[C@@H]21", "Tmax at 14 day": "46.2 min"}

---

Experiment: Pharmacokinetics (tmax) after intravenous and nebulizer inhalation administration, rat
Format: in vivo
Details: blood, inhaled or intranasal, 5 mg/kg, inhalation, 5 mg/kg, 15 minutes exposure, multiple dose (14 day), read-out: Average tmax (converted)

{"smiles_structure": "CCCCCc1cc(O)c2c(c1)OC(C)(C)[C@@H]1CCC(C)=C[C@@H]21", "reading_unit": "min", "Tmax at 14 day": 17.4}

// provenance: patent US6747058B1
